Assay: Cell viability by CCK-8 method
Format: cell-based
Conditions: human; HEK293 cells, CCK-8, compounds at 100 μM, 48 h; read-out: Cell Viability (%) (n = 3)
Below: a set of entries, each annotated with reported viability at 48 h, 100 µM.
endpointLabel: viability at 48 h, 100 µM (%)

compound	endpointLabel	quantityUnit	measuredNumber
CC(=O)OC[C@]12[C@H](OC(C)=O)[C@H](OC(C)=O)[C@@H]3[C@@H](OC(C)=O)[C@@]14O[C@@]3(C)COC(=O)c1cnccc1C(C)C(C)C(=O)O[C@@H]([C@H](O)[C@@H]2OC(C)=O)[C@]4(C)O (some centres unmarked)	viability at 48 h, 100 µM	%	92.4
CC(=O)OCC12C(OC(C)=O)C(OC(C)=O)C3C(OC(C)=O)C14OC3(C)COC(=O)c1cnccc1CCC(C)(O)C(=O)OC(C(OC(=O)c1ccco1)C2OC(C)=O)C4(C)O (centres unmarked)	viability at 48 h, 100 µM	%	94.2

====

Below: a set of entries, each annotated with reported inhibition at 100 µM.
Test system: NF-κB pathway
Assay: NF-κB luciferase reporter assay in LPS-induced HEK293/NF-κB-Luc cells
Assay type: cell-based
Conditions: Homo sapiens, HEK293, 24 h, compounds at 100 μM, 1 μg/mL LPS 24 h, read-out: NF-κB Inhibitory Rates (%) (n = 3)
endpointLabel: inhibition at 100 µM

compound	endpointLabel	result
CC(=O)OCC12C(OC(C)=O)C(OC(C)=O)C3C(OC(C)=O)C14OC3(C)COC(=O)c1cnccc1CCC(C)(O)C(=O)OC(C(OC(=O)c1ccco1)C2OC(C)=O)C4(C)O (centres unmarked) [Compound 2, wilfordinine H]	inhibition at 100 µM	33.9%
CC(=O)OC[C@]12[C@H](OC(C)=O)[C@H](OC(C)=O)[C@@H]3[C@@H](OC(C)=O)[C@@]14O[C@@]3(C)COC(=O)c1cnccc1C(C)C(C)C(=O)O[C@@H]([C@H](O)[C@@H]2OC(C)=O)[C@]4(C)O (some centres unmarked) [Compound 6, wilfordinine A]	inhibition at 100 µM	> 45%
CC(=O)OCC12C(OC(C)=O)C(OC(C)=O)C3C(OC(C)=O)C14OC3(C)COC(=O)c1cnccc1C(C)C(C)(O)C(=O)OC(C(OC(C)=O)C2OC(C)=O)C4(C)O (centres unmarked) [Compound 7, wilfordinine B]	inhibition at 100 µM	32.1%
CC(=O)OCC12C(OC(C)=O)C(O)C3OC(=O)C(C)C(C)c4ccncc4C(=O)OCC4(C)OC1(C(O)C4C(OC(C)=O)C2OC(C)=O)C3(C)O (centres unmarked) [Compound 4]	inhibition at 100 µM	> 45%
CC(=O)OCC12C(OC(C)=O)C(OC(C)=O)C3C(OC(C)=O)C14OC3(C)COC(=O)c1cnccc1C(C)C(C)C(=O)OC(C(OC(C)=O)C2OC(C)=O)C4(C)O (centres unmarked) [Compound 8, peritassine A]	inhibition at 100 µM	19.1%

====

Below: a set of entries, each annotated with reported viability at 48 h, 100 µM.
Experiment: Cell viability by CCK-8 method
Type: cell-based
Conditions: human; HEK293 cells, CCK-8, compounds at 100 μM, 48 h; read-out: Cell Viability (%) (n = 3)
endpointLabel: viability at 48 h, 100 µM (%)

molecule	measuredNumber
CC(=O)OCC12C(OC(C)=O)C(OC(C)=O)C3C(OC(C)=O)C14OC3(C)COC(=O)c1cnccc1C(C)C(C)C(=O)OC(C(OC(C)=O)C2OC(C)=O)C4(C)O (stereo not drawn)	93.9
CC(=O)OCC12C(OC(C)=O)C(O)C3OC(=O)C(C)C(C)c4ccncc4C(=O)OCC4(C)OC1(C(O)C4C(OC(C)=O)C2OC(C)=O)C3(C)O (stereo not drawn)	100
CC(=O)OCC12C(OC(C)=O)C(OC(C)=O)C3C(OC(C)=O)C14OC3(C)COC(=O)c1cnccc1C(C)C(C)(O)C(=O)OC(C(OC(C)=O)C2OC(C)=O)C4(C)O (stereo not drawn)	95
